experimentNotes: Compound stability in human liver microsomes
Format: in vitro ADME
statedConditions: pH 7.4; human liver microsomes 0.5 mg protein/mL, compound 5 μM, NADPH, 37° C.; read-out: Human T1/2
property: half-life at 5 μM (min)

1: Cn1cc(Nc2ncc(Cl)c(N[C@@H]3COC4C3OC[C@@H]4NS(=O)(=O)CC(C)(C)C#N)n2)cn1 (stereo partly drawn)
2: Cn1cc(Nc2ncc(Cl)c(N[C@@H]3COC4C3OC[C@@H]4N3CCCS3(=O)=O)n2)cn1 (stereo partly drawn)
Recorded half-life at 5 μM values differ for 1 and 2 ; which one is higher? # respond with the chosen item's label
2

###

assayTarget: JAK2 (h) (Homo sapiens)
Construct: purchased Millipore UK Ltd (contract assay service)
Sequence (O60674 whole entry): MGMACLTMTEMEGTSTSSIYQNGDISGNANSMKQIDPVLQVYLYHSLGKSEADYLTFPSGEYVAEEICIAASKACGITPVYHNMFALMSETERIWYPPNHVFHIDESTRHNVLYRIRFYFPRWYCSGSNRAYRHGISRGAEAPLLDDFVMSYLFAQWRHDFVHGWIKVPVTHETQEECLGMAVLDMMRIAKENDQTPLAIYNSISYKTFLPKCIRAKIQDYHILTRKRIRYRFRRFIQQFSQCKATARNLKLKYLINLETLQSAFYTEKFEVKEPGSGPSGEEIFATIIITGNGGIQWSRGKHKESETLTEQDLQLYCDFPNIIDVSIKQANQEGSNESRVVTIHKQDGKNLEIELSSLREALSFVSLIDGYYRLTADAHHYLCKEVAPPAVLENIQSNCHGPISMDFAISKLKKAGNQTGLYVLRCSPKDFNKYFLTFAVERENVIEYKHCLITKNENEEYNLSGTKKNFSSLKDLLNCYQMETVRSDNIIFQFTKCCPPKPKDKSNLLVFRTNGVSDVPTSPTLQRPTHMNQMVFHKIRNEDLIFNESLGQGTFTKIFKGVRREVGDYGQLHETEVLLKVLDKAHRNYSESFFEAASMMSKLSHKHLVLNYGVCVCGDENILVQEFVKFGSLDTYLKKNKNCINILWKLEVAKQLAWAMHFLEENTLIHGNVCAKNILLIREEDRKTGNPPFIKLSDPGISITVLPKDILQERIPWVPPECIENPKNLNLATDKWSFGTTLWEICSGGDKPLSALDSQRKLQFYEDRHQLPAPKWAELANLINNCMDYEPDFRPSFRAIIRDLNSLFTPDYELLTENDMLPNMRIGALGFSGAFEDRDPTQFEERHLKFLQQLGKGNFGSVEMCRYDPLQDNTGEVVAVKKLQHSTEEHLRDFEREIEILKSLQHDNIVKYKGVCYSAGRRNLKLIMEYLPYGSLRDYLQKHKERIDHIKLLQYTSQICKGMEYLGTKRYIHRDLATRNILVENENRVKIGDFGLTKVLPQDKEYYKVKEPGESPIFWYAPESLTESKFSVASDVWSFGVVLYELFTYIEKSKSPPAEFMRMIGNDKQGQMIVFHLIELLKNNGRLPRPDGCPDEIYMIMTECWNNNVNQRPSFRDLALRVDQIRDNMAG
experimentNotes: JAK2 (h) kinase assay
Format: biochemical
property: pIC50
Please express pIC50 as -log10 of the molar concentration.

The recorded pIC50 with JAK2 (h) (Homo sapiens) for CC(C)CS(=O)(=O)N[C@H]1COC2C1OC[C@H]2Nc1nc(Nc2cnn(C)c2)ncc1Cl (stereo partly shown) was 6.46

###

assayTarget: Aurora-A (h) (Homo sapiens, UniProt O14965)
Construct: purchased Millipore UK Ltd (contract assay service)
Sequence (O14965 whole entry): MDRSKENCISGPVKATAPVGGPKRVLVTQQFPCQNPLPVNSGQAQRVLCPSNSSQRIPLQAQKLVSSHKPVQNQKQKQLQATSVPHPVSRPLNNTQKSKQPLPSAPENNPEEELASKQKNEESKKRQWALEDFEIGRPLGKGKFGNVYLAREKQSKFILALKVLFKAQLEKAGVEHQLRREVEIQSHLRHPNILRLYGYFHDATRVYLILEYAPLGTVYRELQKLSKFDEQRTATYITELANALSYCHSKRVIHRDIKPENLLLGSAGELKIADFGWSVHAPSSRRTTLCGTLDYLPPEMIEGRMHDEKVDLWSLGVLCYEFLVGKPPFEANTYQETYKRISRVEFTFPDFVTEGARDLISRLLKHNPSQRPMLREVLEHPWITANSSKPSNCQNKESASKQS
experimentNotes: Aurora-A (h) kinase assay
Type: biochemical
pIC50: −log10 of the molar value.
property: pIC50

1: Cn1cc(Nc2ncc(Cl)c(N[C@@H]3COC4C3OC[C@@H]4NS(=O)(=O)C3CCOC3)n2)cn1 (stereo partly shown)
2: CCC(C)CS(=O)(=O)N[C@H]1COC2C1OC[C@H]2Nc1nc(Nc2cnn(C)c2)ncc1Cl (stereo partly shown)
Recorded pIC50 values differ for 1 and 2 ; which one is higher? # respond with the chosen item's label
2
(2: 7.74, 1: 7.39)

a: Cn1cc(Nc2ncc(Cl)c(N[C@@H]3COC4C3OC[C@@H]4NS(=O)(=O)CC(F)(F)F)n2)cn1 (stereo partly shown)
b: Cn1cc(Nc2ncc(Cl)c(N[C@H]3COC4C3OC[C@H]4NS(=O)(=O)N3CCCC3)n2)cn1 (stereo partly shown)
c: Cn1cc(Nc2ncc(Cl)c(N[C@@H]3COC4C3OC[C@@H]4NS(=O)(=O)CC(C)(C)C#N)n2)cn1 (stereo partly shown)
Order these by pIC50, descending, and give the full ranking. Give the labels in the order specified.
c, a, b

1: Cn1cc(Nc2ncc(Cl)c(N[C@@H]3COC4C3OC[C@@H]4NS(=O)(=O)C3CCCC3)n2)cn1 (stereo partly shown)
2: CC(C)CS(=O)(=O)N[C@H]1COC2C1OC[C@@H]2Nc1nc(Nc2cnn(C)c2)ncc1Cl (stereo partly shown)
3: CC(C)CS(=O)(=O)N[C@@H]1COC2C1OC[C@@H]2Nc1nc(Nc2cnn(C)c2)ncc1Cl (stereo partly shown)
4: Cn1cc(Nc2ncc(Cl)c(N[C@@H]3COC4C3OC[C@@H]4NS(=O)(=O)CC3CCCO3)n2)cn1 (stereo partly shown)
Order these by pIC50, descending, and give the full ranking. Give the labels in the order specified.
4, 1, 2, 3
(4: 7.62, 1: 7.29, 2: 6.24, 3: 5.99)

###

experimentNotes: Pharmacokinetics after intravenous and oral administration in rats
Assay type: in vivo
statedConditions: rat, plasma, iv dosing, dose 1 mg/kg
property: half-life (min)

- compound: "Cn1cc(Nc2ncc(Cl)c(N[C@@H]3COC4C3OC[C@@H]4NS(=O)(=O)CC3CCCO3)n2)cn1 (some centres unmarked)"
  readingUnit: "min"
  half-life: 37.8
- compound: "Cn1cc(Nc2ncc(Cl)c(N[C@@H]3COC4C3OC[C@@H]4NS(=O)(=O)C(C)(C)C)n2)cn1 (some centres unmarked)"
  readingUnit: "min"
  half-life: 42
- compound: "CC(C)S(=O)(=O)N[C@H]1COC2C1OC[C@H]2Nc1nc(Nc2cnn(C)c2)ncc1Cl (some centres unmarked)"
  readingUnit: "min"
  half-life: 47.4
- compound: "Cn1cc(Nc2ncc(Cl)c(N[C@@H]3COC4C3OC[C@@H]4NS(=O)(=O)CC3CC(F)C3)n2)cn1 (some centres unmarked)"
  readingUnit: "min"
  half-life: 33
- compound: "CC(CS(=O)(=O)N[C@H]1COC2C1OC[C@H]2Nc1nc(Nc2cnn(C)c2)ncc1Cl)C(F)(F)F (some centres unmarked)"
  readingUnit: "min"
  half-life: 31.2

P: Cn1cc(Nc2ncc(Cl)c(N[C@@H]3COC4C3OC[C@@H]4NS(=O)(=O)CC3CC3)n2)cn1 (some centres unmarked)
Q: CC(CF)CS(=O)(=O)N[C@H]1COC2C1OC[C@H]2Nc1nc(Nc2cnn(C)c2)ncc1Cl (some centres unmarked)
R: CC(C)CS(=O)(=O)N[C@@H]1COC2C1OC[C@@H]2Nc1nc(Nc2cnn(C)c2)ncc1Cl (some centres unmarked)
Order these by half-life, descending, and give the full ranking. Give the labels in the order specified.
R, Q, P

###

experimentNotes: Compound stability in human liver microsomes
Assay type: in vitro ADME
statedConditions: pH 7.4; human liver microsomes; in vivo CLint extrapolated
property: CLint scaled at 5 μM (mL/min/kg)

Here are 5 compounds together with their reported answers.
- compound: "CC(C)CS(=O)(=O)N[C@H]1COC2C1OC[C@H]2Nc1nc(Nc2cnn(C)c2)ncc1Cl (some centres unmarked)"
  readingUnit: "mL/min/kg"
  CLint scaled at 5 μM: 47
- compound: "Cn1cc(Nc2ncc(Cl)c(N[C@@H]3COC4C3OC[C@@H]4NS(=O)(=O)C3CCCC3)n2)cn1 (some centres unmarked)"
  readingUnit: "mL/min/kg"
  CLint scaled at 5 μM: 70.4
- compound: "Cn1cc(Nc2ncc(Cl)c(N[C@@H]3COC4C3OC[C@@H]4NS(=O)(=O)CC(C)(F)F)n2)cn1 (some centres unmarked)"
  readingUnit: "mL/min/kg"
  CLint scaled at 5 μM: 26.5
- compound: "Cn1cc(Nc2ncc(Cl)c(N[C@@H]3COC4C3OC[C@@H]4NS(=O)(=O)C(C)(C)C)n2)cn1 (some centres unmarked)"
  readingUnit: "mL/min/kg"
  CLint scaled at 5 μM: 68
- compound: "Cn1cc(Nc2ncc(Cl)c(N[C@@H]3COC4C3OC[C@@H]4NS(=O)(=O)CC3CCOC3)n2)cn1 (some centres unmarked)"
  readingUnit: "mL/min/kg"
  CLint scaled at 5 μM: 44.4

1: Cn1cc(Nc2ncc(Cl)c(N[C@@H]3COC4C3OC[C@@H]4NS(=O)(=O)CC(C)(C)O)n2)cn1 (some centres unmarked)
2: Cn1cc(Nc2ncc(Cl)c(N[C@@H]3COC4C3OC[C@@H]4NS(=O)(=O)N3CCOCC3)n2)cn1 (some centres unmarked)
3: CC(CF)CS(=O)(=O)N[C@H]1COC2C1OC[C@H]2Nc1nc(Nc2cnn(C)c2)ncc1Cl (some centres unmarked)
Form: Sort by [CLint scaled at 5 μM] Order [ ascending ] Give the labels in the order specified.
1, 2, 3
(1: 17 mL/min/kg, 2: 39.4 mL/min/kg, 3: 65.5 mL/min/kg)

###

experimentNotes: Compound stability in human liver microsomes
Format: in vitro ADME
statedConditions: pH 7.4; human liver microsomes; in vivo CLint extrapolated
property: CLint scaled at 5 μM (mL/min/kg)

Here are 5 molecules together with their reported answers.
- molecule: "Cn1cc(Nc2ncc(Cl)c(N[C@@H]3COC4C3OC[C@@H]4NS(=O)(=O)C3CCOC3)n2)cn1 (some centres unmarked)"
  readingUnit: "mL/min/kg"
  observedValue: 23
- molecule: "CC(CS(=O)(=O)N[C@H]1COC2C1OC[C@H]2Nc1nc(Nc2cnn(C)c2)ncc1Cl)C(F)F (some centres unmarked)"
  readingUnit: "mL/min/kg"
  observedValue: 59.3
- molecule: "Cn1cc(Nc2ncc(Cl)c(N[C@@H]3COC4C3OC[C@@H]4NS(=O)(=O)C3CC3)n2)cn1 (some centres unmarked)"
  readingUnit: "mL/min/kg"
  observedValue: 3.09
- molecule: "CC(O)CS(=O)(=O)N[C@H]1COC2C1OC[C@H]2Nc1nc(Nc2cnn(C)c2)ncc1Cl (some centres unmarked)"
  readingUnit: "mL/min/kg"
  observedValue: 2.1
- molecule: "Cn1cc(Nc2ncc(Cl)c(N[C@@H]3COC4C3OC[C@@H]4NS(=O)(=O)c3ccc(F)cc3)n2)cn1 (some centres unmarked)"
  readingUnit: "mL/min/kg"
  observedValue: 30.4

P: Cn1cc(Nc2ncc(Cl)c(N[C@@H]3COC4C3OC[C@@H]4NS(=O)(=O)CC3CC3)n2)cn1 (some centres unmarked)
Q: CC(CS(=O)(=O)N[C@H]1COC2C1OC[C@H]2Nc1nc(Nc2cnn(C)c2)ncc1Cl)C(F)(F)F (some centres unmarked)
Recorded CLint scaled at 5 μM values differ for P and Q ; which one is higher? # respond with the chosen item's label
Q

###

experimentNotes: Pharmacokinetics after intravenous and oral administration in rats
Type: in vivo
statedConditions: rat, plasma, iv dosing, dose 1 mg/kg
property: AUC(0-t) (ng·h/mL)

Here are 5 compounds together with their reported answers.
- compound: "Cn1cc(Nc2ncc(Cl)c(N[C@@H]3COC4C3OC[C@@H]4NS(=O)(=O)N3CCOCC3)n2)cn1 (stereo partly shown)"
  readingUnit: "ng·h/mL"
  AUC(0-t): 542
- compound: "Cn1cc(Nc2ncc(Cl)c(N[C@@H]3COC4C3OC[C@@H]4NS(=O)(=O)CC(C)(C)O)n2)cn1 (stereo partly shown)"
  readingUnit: "ng·h/mL"
  AUC(0-t): 290
- compound: "CC(C)CS(=O)(=O)N[C@@H]1COC2C1OC[C@@H]2Nc1nc(Nc2cnn(C)c2)ncc1Cl (stereo partly shown)"
  readingUnit: "ng·h/mL"
  AUC(0-t): 291
- compound: "Cn1cc(Nc2ncc(Cl)c(N[C@@H]3COC4C3OC[C@@H]4N3CCCS3(=O)=O)n2)cn1 (stereo partly shown)"
  readingUnit: "ng·h/mL"
  AUC(0-t): 363
- compound: "Cn1cc(Nc2ncc(Cl)c(N[C@@H]3COC4C3OC[C@@H]4NS(=O)(=O)c3ccc(F)cc3)n2)cn1 (stereo partly shown)"
  readingUnit: "ng·h/mL"
  AUC(0-t): 452

a: Cn1cc(Nc2ncc(Cl)c(N[C@H]3COC4C3OC[C@H]4NS(=O)(=O)N3CCCC3)n2)cn1 (stereo partly shown)
b: Cn1cc(Nc2ncc(Cl)c(N[C@@H]3COC4C3OC[C@@H]4Nc3ccc(C#N)cn3)n2)cn1 (stereo partly shown)
Consider entries a and b . Which has the numerically lower AUC(0-t)? # respond with the chosen item's label
a
(a: 309 ng·h/mL, b: 2440 ng·h/mL)

I: Cn1cc(Nc2ncc(Cl)c(N[C@@H]3COC4C3OC[C@@H]4NS(=O)(=O)Cc3ccccc3)n2)cn1 (stereo partly shown)
II: Cn1cc(Nc2ncc(Cl)c(N[C@@H]3COC4C3OC[C@@H]4NS(=O)(=O)CC3CC3)n2)cn1 (stereo partly shown)
III: Cn1cc(Nc2ncc(Cl)c(N[C@@H]3COC4C3OC[C@@H]4NS(=O)(=O)CC(C)(F)F)n2)cn1 (stereo partly shown)
Order these by AUC(0-t), descending, and give the full ranking. Give the labels in the order specified.
III, II, I

I: CCC(C)CS(=O)(=O)N[C@H]1COC2C1OC[C@H]2Nc1nc(Nc2cnn(C)c2)ncc1Cl (stereo partly shown)
II: Cn1cc(Nc2ncc(Cl)c(N[C@@H]3COC4C3OC[C@@H]4NS(=O)(=O)CC3CC(F)C3)n2)cn1 (stereo partly shown)
III: Cn1cc(Nc2ncc(Cl)c(N[C@@H]3COC4C3OC[C@@H]4N3CCCC3=O)n2)cn1 (stereo partly shown)
Form: Sort by [AUC(0-t)] Order [ ascending ] Give the labels in the order specified.
II, I, III
(II: 464 ng·h/mL, I: 725 ng·h/mL, III: 1630 ng·h/mL)
